- ASSAY REMARKS: NCI Yeast Anticancer Drug Screen. Data for the rad52 strain (AID 147);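 note: 0% = growth of vehicle-treated control cultures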
- MEASUREMENT PARAMETERS: S. cerevisiae rad52 mutant growth inhibition; at 33.0 µM; hits give high values
About 79,000 compounds went through this panel and 15% of them were active in at least one assay; those are over-represented in the sample as a whole.
Label scheme, based on growth inhibition: 0 = under 30%, 1 = from 30% up to 50%, 2 = 50% and over

Enquiry: Which bin should I file `CCOC(=O)c1cnc2c(C(F)(F)F)cccc2c1N=[N+]=[N-]` under?
Return: 1

Enquiry: Which bin should I file `CC(=O)Cc1ccc[cH-]1.[Fe+2].c1cc[cH-]c1` under?
Return: 0

Enquiry: Which bin should I file `COC(=O)c1ccc(CCC2=CC(=O)C(Br)=CC2=O)cc1` under?
Return: 2

Enquiry: Which bin should I file `Nc1ccc2c(c1)C(=O)c1cccc(N)c1C2=O` under?
Return: 2

Enquiry: Which bin should I file `CCCCOC(=O)N[C@H]1CCc2cc(OC)c(OC)c(OC)c2-c2ccc(SC)c(=O)cc21` under?
Return: 1

Enquiry: Which bin should I file COC(=O)C1=C(C)NC(C)=C(C(=O)OCCCN2CCC(c3ccccc3)(c3ccccc3)CC2)C1c1cccc([N+](=O)[O-])c1 (stereo not drawn) under?
Return: 2

Enquiry: Which bin should I file `N#CN1C2CCC1CC(=O)C2` under?
Return: 0

Enquiry: Which bin should I file `COC(=O)CSSCc1ccc([N+](=O)[O-])cc1` under?
Return: 2

Enquiry: Which bin should I file `NC(N)=N/N=C\c1c2ccccc2cc2ccccc12` under?
Return: 0

Enquiry: Which bin should I file `O=C(c1cc(Br)ccc1O)c1cc(Br)ccc1O` under?
Return: 2

Enquiry: Which bin should I file `O=C([O][Sn]([O]C(=O)c1ccccc1)([c]1ccccc1)[c]1ccccc1)c1ccccc1` under?
Return: 1

Enquiry: Which bin should I file `Cc1ccc(CSC(N)=Nc2ccccc2)cc1C` under?
Return: 0

Enquiry: Which bin should I file `O=C(N=Nc1ccccc1Cl)NNc1ccccc1Cl` under?
Return: 0

Enquiry: Which bin should I file `Cc1cc(S(=O)(=O)/N=C(/NN)NNc2cccc(C(F)(F)F)n2)c(S)cc1Cl` under?
Return: 0

Enquiry: Which bin should I file `O=C(O)CNc1ccc(Cl)c(Cl)c1` under?
Return: 2

Enquiry: Which bin should I file `O=[N+]([O-])c1cccc2nccc(NCCCO)c12` under?
Return: 1

Enquiry: Which bin should I file `COc1ccc2nc3c([N+](=O)[O-])ccc(NCCN(C)C)c3c(NCCN(C)C)c2c1` under?
Return: 0

Enquiry: Which bin should I file `CC(=O)OCc1ccc(O)c(C=O)c1` under?
Return: 0

Enquiry: Which bin should I file `COc1ccc2nc3cccc([N+](=O)[O-])c3c(NCCN(CCO)CCO)c2c1` under?
Return: 2

Enquiry: Which bin should I file COc1cc(C2c3cc4c(cc3OC(Nc3ccccc3)C2C)OCO4)cc(OC)c1O (stereo not drawn) under?
Return: 0

Enquiry: Which bin should I file `Cn1c(=O)c(-c2ccccc2)c(N=[N+]=[N-])c2ccccc21` under?
Return: 2

###

- ASSAY REMARKS: NCI Yeast Anticancer Drug Screen. Data for the mec2-1 strain (AID 157)
- MEASUREMENT PARAMETERS: S. cerevisiae mec2-1 strain, at 1.2 µM, hits give high values
The panel holds about 79,000 compounds, 15% with a hit somewhere; the sample as a whole holds those more often.
Exercise: for every item that follows, state its recorded growth inhibition.
Number in %, nothing else.

Enquiry: Give the value of growth inhibition reported for the following: `Clc1cccc(C(Nc2nncs2)Nc2nncs2)c1Cl`
Return: -1

Enquiry: Give the value of growth inhibition reported for the following: `CCCS(=O)(=O)Nc1ccc(Nc2c3ccccc3nc3ccccc23)c(OC)c1`
Return: -59

Enquiry: Give the value of growth inhibition reported for the following: `Cc1cc2c(cc1C(=O)CCC(=O)O)CC1(C2)Cc2cc(C)c(C(=O)CCC(=O)O)cc2C1`
Return: -2

Enquiry: Give the value of growth inhibition reported for the following: `CC(C)NC(=O)OCc1c(COC(=O)NC(C)C)c(-c2ccc(Cl)c(Cl)c2)n2c1CCC2`
Return: -71

Enquiry: Give the value of growth inhibition reported for the following: `NC(=O)NN=C(CS)CS`
Return: 0

Enquiry: Give the value of growth inhibition reported for the following: `Nc1ncncc1C(C1=C(O)COC1=O)C1=C(O)COC1=O`
Return: 4

Enquiry: Give the value of growth inhibition reported for the following: `Cc1c(C(=O)C(=O)c2ccccc2)c(C)c(C(=O)C(=O)c2ccccc2)c(C)c1C(=O)C(=O)c1ccccc1`
Return: -2

Enquiry: Give the value of growth inhibition reported for the following: `BrCC[P+](c1ccccc1)(c1ccccc1)c1ccccc1`
Return: -74

Enquiry: Give the value of growth inhibition reported for the following: COC(=O)C1=C(C(=O)OC)C2(C)C=CC1O2 (stereo not given)
Return: -2

Enquiry: Give the value of growth inhibition reported for the following: Cc1cccc2c(C(O)CBr)cc(-c3ccc(Cl)cc3)nc12 (stereo not given)
Return: 0

Enquiry: Give the value of growth inhibition reported for the following: `COc1ccc(/C(C)=N/OC(=O)c2c(-c3ccccc3Cl)noc2C)cc1CN1CCOCC1`
Return: -25

Enquiry: Give the value of growth inhibition reported for the following: `CSC1=NNC(SC)=NN1`
Return: -4

Enquiry: Give the value of growth inhibition reported for the following: `CCCCCCCCCCC(=O)Cl`
Return: -1

Enquiry: Give the value of growth inhibition reported for the following: `NC(N)=N/N=C\c1c2ccccc2cc2ccccc12`
Return: -58

Enquiry: Give the value of growth inhibition reported for the following: C/C(=N\O)C1CC2C=C(C#N)C1N(Cc1ccccc1)C2 (stereo not given)
Return: 0

Enquiry: Give the value of growth inhibition reported for the following: `CC(C)c1cc(C(C)C)c(O)c(C([O-])[O-])c1.CC(C)c1cc(C(C)C)c(O)c(C([O-])[O-])c1.CC(C)c1cc(C(C)C)c(O)c(C([OH2+])[OH2+])c1.CC(C)c1cc(C(C)C)c(O)c(C([OH2+])[OH2+])c1.[Cu+2].[Cu+2].[OH3+].[OH3+]`
Return: 7

Enquiry: Give the value of growth inhibition reported for the following: `CCCCCCCCNC(=O)C1=C(C)NC(C)=C(C(=O)NCCCCCCCC)C1`
Return: 0

Enquiry: Give the value of growth inhibition reported for the following: `Cc1cc(N=Nc2ccc(S(=O)(=O)[O-])cc2)cc(C(=O)[O-])c1[O-].NC1CCCCC1N.[Na+].[Pt+4]`
Return: 9

Enquiry: Give the value of growth inhibition reported for the following: `CCS(=O)(=O)c1ccc(/C=C/C=N/NC(=S)NCC(C)C)cc1`
Return: 0

Enquiry: Give the value of growth inhibition reported for the following: `CO[C@H]1C[C@](C)(O)Cc2cc3c(c(O)c21)C(=O)c1c(O)cc2c(c1C3=O)O[C@@H]1O[C@@]2(C)[C@H](O)[C@@H](N(C)C)[C@@H]1O`
Return: -19

###

- ASSAY REMARKS: NCI Yeast Anticancer Drug Screen. Data for the mgt1 strain (AID 153)
- MEASUREMENT PARAMETERS: S. cerevisiae mgt1 mutant growth inhibition; at 33.0 µM
Compounds without any hit were thinned out: in the full panel of roughly 79,000, 15% have a hit. Calls of active or inactive are those of the source. Rule as the data show it: active = growth inhibition above about 70%; inactive = the rest.
API: response.call in active, inactive

Enquiry: For O=C(Nc1ccccc1)C(=O)C(C(=O)c1ccccc1)C(c1ccccc1)c1ccccc1 (configuration not stated) , what call appears in the results of this test?
Return: inactive

Enquiry: For `CC(=O)Oc1ccc2c(c1)Cc1cc(N=C3C=CC(=O)O3)ccc1-2` , what call appears in the results of this test?
Return: active

Enquiry: For `COc1ccc(NC(=S)N/N=C(\c2ccccc2)c2ccccn2)cc1` , what call appears in the results of this test?
Return: inactive

Enquiry: For `COC(=O)CSSCc1ccc([N+](=O)[O-])cc1` , what call appears in the results of this test?
Return: inactive

Enquiry: For `COc1ccccc1N=NC(C(=O)c1ccccc1)C(=O)c1ccccc1` , what call appears in the results of this test?
Return: active

Enquiry: For `O=C1C=CC(=O)N1c1ccc2c(c1)Cc1cc(NC(=O)C(F)(F)F)ccc1-2` , what call appears in the results of this test?
Return: inactive

Enquiry: For `CCC(=O)Oc1c(Cl)cc(Cl)c2ccccc12` , what call appears in the results of this test?
Return: inactive

Enquiry: For `CCC/C(Cl)=N\OC(=O)Nc1cccc(C(F)(F)F)c1` , what call appears in the results of this test?
Return: active

Enquiry: For `CC(C)/C(Cl)=N\OC(=O)Nc1cccc(Cl)c1` , what call appears in the results of this test?
Return: inactive

Enquiry: For COc1ccccc1C(=O)OCC1CCCN2CCCCC12 (configuration not stated) , what call appears in the results of this test?
Return: active

Enquiry: For `CN(C)c1ccc(Sc2ccc3nc(N)nc(N)c3c2)cc1` , what call appears in the results of this test?
Return: inactive

Enquiry: For `N#CN=Nc1cc(Cl)c(N=NC#N)cc1Cl` , what call appears in the results of this test?
Return: inactive

Enquiry: For `[O-][n+]1c2ccc(O)cc2nc2ccc(Cl)cc21` , what call appears in the results of this test?
Return: inactive

Enquiry: For `O=[N+]([O-])c1cccc([N+](=O)[O-])c1S(=O)(=O)c1ccccc1` , what call appears in the results of this test?
Return: active

Enquiry: For `CC(=O)OCc1ccc(O)c(C=O)c1` , what call appears in the results of this test?
Return: inactive

Enquiry: For `C[C@@H]1C[C@H]2[C@@H]3CCC4=CC(=O)C=C[C@]4(C)[C@@]3(Cl)[C@@H](Cl)C[C@]2(C)[C@@]1(O)C(=O)COP(=O)(O)O` , what call appears in the results of this test?
Return: inactive

Enquiry: For C=CC(C)(O)CCC1C(=C)C(O)CC2C(C)(C)CCCC12C (configuration not stated) , what call appears in the results of this test?
Return: inactive

Enquiry: For `Cc1ccc2[nH]c3c(C)c4cc[n+](C)cc4c(C)c3c2c1` , what call appears in the results of this test?
Return: inactive

Enquiry: For `CC[n+]1ccc2c(C)c3[nH]c4ccc(O)cc4c3c(C)c2c1` , what call appears in the results of this test?
Return: inactive

Enquiry: For `CCN(CC)[P+](c1ccccc1O)(N(CC)CC)N(CC)CC` , what call appears in the results of this test?
Return: inactive

Enquiry: For COC(=O)C1=C(C(=O)OC)C2(C)C=CC1O2 (configuration not stated) , what call appears in the results of this test?
Return: inactive

Enquiry: For `CC(=O)N/N=C/C(C)(C)C(C)(C)/C=N/NC(C)=O` , what call appears in the results of this test?
Return: inactive
